assay: logP determination by HPLC on reverse-phase column (C 18), EEC directive 79/831 Annex V.A8; assay type: physicochemical; conditions: reverse-phase HPLC column (C 18), pH 7.5, neutral range, pH 7.5; 0.01 molar aqueous phosphate buffer/acetonitrile gradient; 43° C.; values marked b)
MEASUREMENT NAME: chromatographic logP

| COMPOUND | chromatographic logP |
| --- | --- |
| Fc1ccc(C2CCC(c3ccc(Cl)cc3)=N2)cc1 (centres unmarked) [Example 34] | 3.99 |
| Cc1ccc(C2CCC(c3ccccc3Cl)=N2)cc1 (centres unmarked) [Example 74] | 4.04 |
| Clc1cccc(C2=NC(c3ccccc3)CC2)c1 (centres unmarked) [Example 48] | 3.97 |
| CSc1ccc(C2CCC(c3ccccc3Br)=N2)cc1 (centres unmarked) [Example 58] | 4.03 |
| Fc1ccc(C2CCC(c3ccccc3Cl)=N2)c(F)c1 (centres unmarked) [Example 60] | 3.96 |
